Reference source for all entries: patent US11241427B2

# testedSystem: NR2F6 (ligand binding domain, amino acids 163-404) (Homo sapiens)
# Construct: HIS (N, cleaved yes); FLAG (N, cleaved yes); TEV site (N, cleaved yes); made in house; host or cells: E. coli BL21 (DE3)
# testProtocol: Thermoshift analysis (TSA) of compound binding to NR2F6
# experimentalConditions: Table 1.1; 100 μM compound, 0.5 mg/ml NR2F6, 1% DMSO; NR2F6 alone Tm 48 °C
Answer each item with its documented Tm.
Report only the number, with the unit °C understood.

Quick note, Tm for "CCCCCCn1c(NCC)nc2c1c(=O)n(C)c(=O)n2C" landed at 47.5

Quick note, Tm for "C[C@H](CCC(=O)NCC(=O)O)[C@H]1CC[C@H]2[C@@H]3[C@H](O)C[C@@H]4C[C@H](O)CC[C@]4(C)[C@H]3C[C@H](O)[C@]12C" landed at 48

Quick note, Tm for "CCCCCC=CCC=CCC=CCC=CCCCC(=O)O" landed at 46.5

Quick note, Tm for "N[C@@H](Cc1cc(I)c(Oc2ccc(O)cc2)c(I)c1)C(=O)O" landed at 48.5

====

Answer each item with its documented delta Tm.
# testedSystem: NR2F6 (ligand binding domain, amino acids 163-404) (Homo sapiens)
# Construct: HIS (N, cleaved yes); FLAG (N, cleaved yes); TEV site (N, cleaved yes); made in house; host or cells: E. coli BL21 (DE3)
# testProtocol: Thermoshift analysis (TSA) of compound binding to NR2F6
# experimentalConditions: Table 1.1; 100 μM compound; shift versus NR2F6 alone (Tm 48 °C)
Report only the number, with the unit °C understood.

Quick note, delta Tm for "C/C=C1\C(=O)C[C@H]2[C@@H]3CCC4=CC(=O)CC[C@]4(C)[C@H]3CC[C@]12C" landed at −2

Quick note, delta Tm for "CCCCC/C=C/C=C1/C(=O)C=C[C@@H]1C/C=C\CCCC(=O)O" landed at 0

Quick note, delta Tm for "CC(C)=CCC/C(C)=C/CC/C(C)=C/CC/C(C)=C/CO" landed at −0.5

Quick note, delta Tm for "N[C@@H](Cc1cc(I)c(Oc2ccc(O)cc2)c(I)c1)C(=O)O" landed at 0.5

Quick note, delta Tm for "Clc1ccc(-c2nc3sccn3c2/C=N/OCc2ccc(Cl)c(Cl)c2)cc1" landed at 0

Quick note, delta Tm for "CCN(CC)S(=O)(=O)c1ccc(/C=C/C(=O)Nc2ccc(Br)cc2F)cc1" landed at 0.5

Quick note, delta Tm for "Cc1ccc(F)cc1NC(=O)Cc1nn(C)c(=O)c2ccccc12" landed at −0.5

Quick note, delta Tm for "Clc1ccc(OCCN2CCN(c3ncnc4sccc34)CC2)cc1" landed at −1.5

Quick note, delta Tm for "CC(=O)c1c(C)[nH]c(C(=O)OCCCCN2C(=O)c3ccccc3C2=O)c1C" landed at 0

Quick note, delta Tm for "CC(=O)[C@H]1CC[C@H]2[C@@H]3CC=C4C[C@@H](O)CC[C@]4(C)[C@H]3CC[C@]12C" landed at 0

Quick note, delta Tm for "CC(=O)c1c(C)[nH]c(C(=O)OCC(=O)Nc2ccc(Cl)cc2[N+](=O)[O-])c1C" landed at 0.5

Quick note, delta Tm for "COc1ccc(/C=N/OCC(=O)NC(c2ccccc2)c2ccccc2)cc1OC" landed at −2

Quick note, delta Tm for "Clc1cnc(Oc2ccc(Oc3ncc(Cl)cc3Cl)cc2)c(Cl)c1" landed at 0

Quick note, delta Tm for "CC(C)c1onc(-c2c(Cl)cccc2Cl)c1COc1ccc(/C=C/c2cccc(C(=O)O)c2)c(Cl)c1" landed at −13

Quick note, delta Tm for "Cc1nn(C)c(C)c1NC(=O)COc1ccc(Cl)cc1Br" landed at −0.5

Quick note, delta Tm for C=C1/C(=C\C=C2/CCC[C@]3(C)[C@@H]([C@H](C)CCCC(C)(C)O)CC[C@@H]23)C[C@@H](O)C[C@@H]1O [Cpd 83, 1a,25-Dihydroxyvitamin D3] landed at −1.5

====

Answer each item with its documented delta Tm.
# testedSystem: NR2F6 (ligand binding domain, amino acids 163-404) (Homo sapiens, UniProt P10588)
# Construct: HIS (N, cleaved yes); FLAG (N, cleaved yes); TEV site (N, cleaved yes); made in house; host or cells: E. coli BL21 (DE3)
# Sequence (P10588 163-404): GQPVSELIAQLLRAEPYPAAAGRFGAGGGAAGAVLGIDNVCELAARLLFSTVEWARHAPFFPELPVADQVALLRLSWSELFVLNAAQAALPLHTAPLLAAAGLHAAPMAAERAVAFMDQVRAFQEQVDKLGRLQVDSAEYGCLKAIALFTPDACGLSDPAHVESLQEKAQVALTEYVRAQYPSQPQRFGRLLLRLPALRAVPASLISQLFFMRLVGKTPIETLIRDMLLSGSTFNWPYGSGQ
# testProtocol: Thermoshift analysis (TSA) of compound binding to NR2F6
# experimentalConditions: Table 1.1; 100 μM compound; shift versus NR2F6 alone (Tm 48 °C)
Answer format reminder: number followed by unit.

Known value: NR2F6 (ligand binding domain, amino acids 163-404) (Homo sapiens, UniProt P10588) delta Tm of the compound C[C@]12CC[C@@H]3c4ccc(O)cc4CC[C@H]3[C@@H]1CC[C@@H]2O [Cpd 65, 17b-Estradiol] equals −1 °C

Known value: NR2F6 (ligand binding domain, amino acids 163-404) (Homo sapiens, UniProt P10588) delta Tm of the compound COc1ccc(CN(C)c2ccc(S(=O)(=O)N3CCN(C)CC3)cc2[N+](=O)[O-])cc1OC [Cpd 129] equals −0.5 °C

Known value: NR2F6 (ligand binding domain, amino acids 163-404) (Homo sapiens, UniProt P10588) delta Tm of the compound N#CCSc1nnc(-c2sc3ccccc3c2Cl)o1 [Cpd 128] equals 0 °C

Known value: NR2F6 (ligand binding domain, amino acids 163-404) (Homo sapiens, UniProt P10588) delta Tm of the compound O=C(Nc1ccccc1)c1cc([N+](=O)[O-])ccc1Cl [Cpd 62, GW 9662] equals 0 °C

Known value: NR2F6 (ligand binding domain, amino acids 163-404) (Homo sapiens, UniProt P10588) delta Tm of the compound O=C(Nc1ccncc1)c1ccc(Cl)c(S(=O)(=O)N2CCc3ccccc32)c1 [Cpd 132] equals −0.5 °C

Known value: NR2F6 (ligand binding domain, amino acids 163-404) (Homo sapiens, UniProt P10588) delta Tm of the compound CCN(CC)S(=O)(=O)c1cccc(NC(=O)COC(=O)c2[nH]c(C)c(C(C)=O)c2C)c1 [Cpd 123] equals −0.5 °C

Known value: NR2F6 (ligand binding domain, amino acids 163-404) (Homo sapiens, UniProt P10588) delta Tm of the compound CCCCCCCC/C=C\CCCCCCCC(=O)NCCO [Cpd 76, N-Oleoylethanolamide] equals 0.5 °C

Known value: NR2F6 (ligand binding domain, amino acids 163-404) (Homo sapiens, UniProt P10588) delta Tm of the compound CC(=O)c1c(C)[nH]c(C(=O)COc2cc(C)ccc2C(C)C)c1C [Cpd 125] equals −0.5 °C

====

# testedSystem: NR2F6 (ligand binding domain, amino acids 163-404) (Homo sapiens)
# Construct: HIS (N, cleaved yes); FLAG (N, cleaved yes); TEV site (N, cleaved yes); made in house; host or cells: E. coli BL21 (DE3)
# testProtocol: Thermoshift analysis (TSA) of compound binding to NR2F6
# experimentalConditions: Table 1.1; 100 μM compound, 0.5 mg/ml NR2F6, 1% DMSO; NR2F6 alone Tm 48 °C
measurementType: Tm (°C)
Report only the number, with the unit °C understood.

Quick note, Tm for "C[C@H](CCC(=O)NCCS(=O)(=O)O)[C@H]1CC[C@H]2[C@@H]3CC[C@@H]4C[C@H](O)CC[C@]4(C)[C@H]3C[C@H](O)[C@]12C" landed at 47.5

Quick note, Tm for "CC/C=C\C/C=C\C/C=C\C/C=C\C/C=C\C/C=C\CCC(=O)O" landed at 47.5

Quick note, Tm for "CCCCC/C=C/C=C1/C(=O)C=C[C@@H]1C/C=C\CCCC(=O)O" landed at 48

Quick note, Tm for "CCN(CC)S(=O)(=O)c1ccc(/C=C/C(=O)Nc2ccc(Br)cc2F)cc1" landed at 48.5

Quick note, Tm for "C/C=C1\C(=O)C[C@H]2[C@@H]3CCC4=CC(=O)CC[C@]4(C)[C@H]3CC[C@]12C" landed at 46

Quick note, Tm for "C[C@]12CCC(=O)C=C1CC[C@@H]1[C@@H]2CC[C@]2(C)C(=O)CC[C@@H]12" landed at 47

Quick note, Tm for "O=C(Nc1ccccc1)c1cc([N+](=O)[O-])ccc1Cl" landed at 48

Quick note, Tm for "Clc1cnc(Oc2ccc(Oc3ncc(Cl)cc3Cl)cc2)c(Cl)c1" landed at 48

Quick note, Tm for "S=C(NCCc1ccccc1)Nc1cccc2cnccc12" landed at 47.5

Quick note, Tm for "Cc1ccc(C)c(OCCCC(C)(C)C(=O)O)c1" landed at 47.5

Quick note, Tm for "Cc1nn(C)c(C)c1NC(=O)COc1ccc(Cl)cc1Br" landed at 47.5

Quick note, Tm for "c1ccc(CNc2ncnc3ccccc23)cc1" landed at 47.5

Quick note, Tm for "Cc1ccc(F)cc1NC(=O)Cc1nn(C)c(=O)c2ccccc12" landed at 47.5

Quick note, Tm for C[C@]12CC[C@@H]3c4ccc(O)cc4CC[C@H]3[C@@H]1CC[C@@H]2O [Cpd 65, 17b-Estradiol] landed at 47

Quick note, Tm for "CC(=O)[C@H]1CC[C@H]2[C@@H]3CC=C4C[C@@H](O)CC[C@]4(C)[C@H]3CC[C@]12C" landed at 48

Quick note, Tm for "N#CCSc1nnc(-c2sc3ccccc3c2Cl)o1" landed at 48

Quick note, Tm for "CCCc1c(OCCCCc2nnn[nH]2)ccc(C(C)=O)c1O" landed at 46.5

Quick note, Tm for CC(CCC(=O)NCC(=O)O)C1CCC2C3CCC4CC(O)CCC4(C)C3CC(O)C12C (stereo not shown) landed at 46.5

Quick note, Tm for "Cc1cc(-n2c(C)cc(C(=O)CSc3ncnc4ccccc34)c2C)no1" landed at 47.5
